Entries and their Ratio
# ASSAY: Selectivity index, ratio of TC50 for human CEM cells to EC50 for SIV-induced syncytium
# Set-up: species or system CCRF-CEM

Would you please look over these solved cases?
• CCN(CC)c1nc(C)c2nc(SCC(=O)NCCCN)n(CCNc3nc(N)nc4[nH]cnc34)c2n1 = >15.4
• CCN(CC)c1nc(C)c2nc(SCC(=O)NCCNC(=N)N)n(CCCN3CCOCC3)c2n1 = >5.3
• CCN(CC)c1nc(C)c2nc(SCC(=O)NCCCNC(=N)N)n(CCc3c[nH]c4ccccc34)c2n1 = 5.2

Please fill in: Ratio reported for CCN(CC)c1nc(C)c2nc(SCC(=O)NCCCN)n(CCNc3ncnc4[nH]cnc34)c2n1 = >18.2

Please fill in: Ratio reported for CCN(CC)c1nc(C)c2nc(SCC(=O)NCCN)n(CCc3c[nH]c4ccccc34)c2n1 = 4.1

Please fill in: Ratio reported for CCN(CC)c1nc(C)c2nc(SCC(=O)NCCCN)n(CCCn3cncn3)c2n1 = 3.6

###

# ASSAY: Cytotoxicity against human CEM cells assessed as inhibition of uninfected cells proliferation
# Format: cell-based
# CONDITION_DESCRIPTION: CEM (CCRF-CEM) cells, read-out: TC50 (the source's name)
READOUT_LABEL: CC50

• CCN(CC)c1nc(C)c2nc(SCC(=O)NCCNC(=N)N)n(CCNc3nc(N)nc4[nH]cnc34)c2n1 = > 100 µM
• CCN(CC)c1nc(C)c2nc(SCC(=O)NCCCN)n(CCCN3CCOCC3)c2n1 = 87.5 µM

Please fill in: CC50 reported for CCN(CC)c1nc(C)c2nc(SCC(=O)NCCCNC(=N)N)n(CCc3c[nH]c4ccccc34)c2n1 = 29.1 µM

Please fill in: CC50 reported for CCN(CC)c1nc(C)c2nc(SCC(=O)NCCCN)n(CCCn3cncn3)c2n1 = 31.7 µM

Please fill in: CC50 reported for CCN(CC)c1nc(C)c2nc(SCC(=O)NCCCNC(=N)N)n(CCNc3ncnc4[nH]cnc34)c2n1 = > 100 µM

Please fill in: CC50 reported for CCN(CC)c1nc(C)c2nc(SCC(=O)NCCNC(=N)N)n(CCCN3CCOCC3)c2n1 = > 100 µM

Please fill in: CC50 reported for CCN(CC)c1nc(C)c2nc(SCC(=O)NCCNC(=N)N)n(CCn3cncn3)c2n1 = > 100 µM

Please fill in: CC50 reported for CCN(CC)c1nc(C)c2nc(SCC(=O)NCCN)n(CCn3cncn3)c2n1 = > 100 µM

Please fill in: CC50 reported for CCN(CC)c1nc(C)c2nc(SCC(=O)NCCCNC(=N)N)n(CCCn3cncn3)c2n1 = > 100 µM

###

Entries and their Ratio
# ASSAY: Selectivity index, ratio of TC50 for human CEM cells to EC50 for SIV-induced syncytium
# Parameters: species or system CCRF-CEM

Would you please look over these solved cases?
• CCN(CC)c1nc(C)c2nc(SCC(=O)NCCN)n(CCn3cncn3)c2n1 = >7.2
• CCN(CC)c1nc(C)c2nc(SCC(=O)NCCCNC(=N)N)n(CCCN3CCOCC3)c2n1 = >8.9
• CCN(CC)c1nc(C)c2nc(SCC(=O)NCCCNC(=N)N)n(CCCn3cncn3)c2n1 = >17.2
• CCN(CC)c1nc(C)c2nc(SCC(=O)NCCCN)n(CCc3c[nH]c4ccccc34)c2n1 = 2.4
• CCN(CC)c1nc(C)c2nc(SCC(=O)NCCN)n(CCNc3ncnc4[nH]cnc34)c2n1 = >40
• CCN(CC)c1nc(C)c2nc(SCC(=O)NCCCNC(=N)N)n(CCNc3nc(N)nc4[nH]cnc34)c2n1 = >12

Please fill in: Ratio reported for CCN(CC)c1nc(C)c2nc(SCC(=O)NCCNC(=N)N)n(CCNc3ncnc4[nH]cnc34)c2n1 = 11.9

Please fill in: Ratio reported for CCN(CC)c1nc(C)c2nc(SCC(=O)NCCN)n(CCCN3CCOCC3)c2n1 = 5.2

Please fill in: Ratio reported for CCN(CC)c1nc(C)c2nc(SCC(=O)NCCN)n(CCNc3nc(N)nc4[nH]cnc34)c2n1 = >5
